Assay System: METTL3/METTL14 (Homo sapiens, UniProt Q86U44)
Sequence (Q86U44 whole entry, species assumed): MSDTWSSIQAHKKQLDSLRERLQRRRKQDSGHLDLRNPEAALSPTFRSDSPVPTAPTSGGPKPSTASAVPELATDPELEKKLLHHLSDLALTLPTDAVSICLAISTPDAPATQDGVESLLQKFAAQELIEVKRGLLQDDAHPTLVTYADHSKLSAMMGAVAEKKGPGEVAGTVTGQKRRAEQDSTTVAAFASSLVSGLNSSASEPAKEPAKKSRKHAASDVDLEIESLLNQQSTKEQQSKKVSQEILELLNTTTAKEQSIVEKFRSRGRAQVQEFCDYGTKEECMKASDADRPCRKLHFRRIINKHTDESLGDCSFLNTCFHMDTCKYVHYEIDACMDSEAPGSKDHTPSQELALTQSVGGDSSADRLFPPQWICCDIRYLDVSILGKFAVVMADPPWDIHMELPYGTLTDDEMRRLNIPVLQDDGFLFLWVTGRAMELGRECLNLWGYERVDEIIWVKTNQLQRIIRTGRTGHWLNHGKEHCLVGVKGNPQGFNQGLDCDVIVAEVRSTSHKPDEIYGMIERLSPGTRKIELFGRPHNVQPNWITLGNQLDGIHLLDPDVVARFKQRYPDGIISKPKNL
Sequence (Q9HCE5 whole entry partner, species assumed): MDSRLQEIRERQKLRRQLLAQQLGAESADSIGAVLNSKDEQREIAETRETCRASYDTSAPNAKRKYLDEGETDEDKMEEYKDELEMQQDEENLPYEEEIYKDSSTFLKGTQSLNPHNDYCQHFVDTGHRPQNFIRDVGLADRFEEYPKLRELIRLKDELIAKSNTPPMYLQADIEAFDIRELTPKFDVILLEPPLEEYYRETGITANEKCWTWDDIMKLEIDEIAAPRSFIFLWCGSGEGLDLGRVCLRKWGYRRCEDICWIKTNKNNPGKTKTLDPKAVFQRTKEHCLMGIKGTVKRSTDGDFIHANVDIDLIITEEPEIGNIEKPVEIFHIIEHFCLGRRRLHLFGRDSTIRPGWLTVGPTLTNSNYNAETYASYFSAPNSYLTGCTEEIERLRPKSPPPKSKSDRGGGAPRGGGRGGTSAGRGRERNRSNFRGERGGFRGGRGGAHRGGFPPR
Assay Text: METTL3-14 standard enzyme assay (3H-SAM flashplate scintillation)
Measurement Parameters: METTL3/METTL14 2.5 nM, RNA 100 nM, 3H-SAM 100 nM, 30 min
pIC50: −log10 of the molar value.
Recorded Metric: pIC50

INSERT INTO measurements (compound, experimental_value) VALUES
  ('Cn1ccc(-c2cn(-c3cncc(COc4ccc(C(=O)NC5CCOCC5)c(N)c4)c3)c3ncnc(N)c23)n1 [Compound I-187]', '6.00 to 7.00'),
  ('Cn1ccc(-c2cn(-c3cncc(COc4ccc(CN5CCOCC5)c(N)c4)c3)c3ncnc(N)c23)n1 [Compound I-210]', '6.00 to 7.00'),
  ('Nc1ccc2ccc(OCc3cncc(-n4ccc5c(N)ncnc54)c3)cc2n1 [Compound I-240]', '7.00 to 8.00'),
  ('Nc1ncnc2c1c([C@@H]1CCCO1)cn2-c1cncc(COc2ccc3ccc(N4CCC4)nc3c2)c1 [Compound I-145]', '> 8.00'),
  ('CCc1cc(NCCOC)c2c(F)cc(OCc3cncc(-n4cc([C@H]5CCCO5)c5c(N)ncnc54)c3)cc2n1 [Compound I-163]', '7.00 to 8.00'),
  ('CCNc1ccc2ccc(CCc3cncc(-n4cc(C5CCCO5)c5c(N)ncnc54)c3)cc2n1 (stereo not drawn) [Compound I-157]', '7.00 to 8.00'),
  ('CNc1ccc2ccc(OCc3cncc(-n4ccc5c(N)nc(NC)nc54)c3)cc2n1 [Compound I-50]', '< 6.00'),
  ('CCc1cc(NC(C)=O)c2ccc(OCc3cncc(-n4cc([C@@H]5CCCO5)c5c(N)ncnc54)c3)cc2n1 [Compound I-165]', '7.00 to 8.00'),
  ('CNc1ccc2ccc(OCc3cncc(-c4c(C)[nH]c5c(N)ncnc45)c3)cc2n1 [Compound I-25]', '> 8.00'),
  ('CCc1cc(N)c2ccc(OCc3cncc(-n4cc(Cl)c5c(N)ncnc54)c3)cc2n1 [Compound I-52]', '> 8.00'),
  ('CN(CCO)c1ccc2ccc(OCc3cncc(-n4cc(-c5ccn(C)n5)c5c(N)ncnc54)c3)cc2n1 [Compound I-169]', '> 8.00'),
  ('CCc1cc(NCCOC)c2ncc(OCc3cncc(-n4cc([C@H]5CCCO5)c5c(N)ncnc54)c3)cc2n1 [Compound I-151]', '7.00 to 8.00'),
  ('CCNc1ccc2ccc(CCc3cncc(-n4cc(-c5ccn(C)n5)c5c(N)ncnc54)c3)cc2n1 [Compound I-106]', '> 8.00'),
  ('Cn1ccc(-c2cn(-c3cncc(COc4ccc5ccc(C6CCOCC6)nc5c4)c3)c3ncnc(N)c23)n1 [Compound I-189]', '6.00 to 7.00'),
  ('CCc1cc(=O)c2ccc(OCc3cncc(-n4cc(C5CCCC5)c5c(N)ncnc54)c3)cc2[nH]1 [Compound I-105]', '6.00 to 7.00');

----------
IC50 listing for selected compounds.
Assay System: METTL3/METTL14 (Homo sapiens)
Assay Text: METTL3-14 standard enzyme assay (3H-SAM flashplate scintillation)
Measurement Parameters: METTL3/METTL14 2.5 nM, RNA 100 nM, 3H-SAM 100 nM, 30 min
Method: METTL3-14 Standard Enzyme Assay Assays were performed in a 25 μl-volume in 384-well V-bottom polypropylene microplates (Greiner Bio-One, cat. No. 781280) at ambient temperature. […] Following two washing cycles with 0.1% Tween-20, the plates were sealed and read on a TopCount (PerkinElmer, Waltham, Mass.) plate-based scintillation counter. […]
Recorded Metric: IC50

INSERT INTO measurements (compound, assay_system, experimental_value) VALUES
  ('Cn1ccc(-c2cn(-c3cncc(CCc4ccc5ccc(N)nc5c4)c3)c3ncnc(N)c23)n1 [Compound I-114]', 'METTL3/METTL14 (Homo sapiens)', '< 0.01 µM'),
  ('CCc1cc(NCCOC)c2ncc(OCc3cncc(-n4cc(-c5ccn(C)n5)c5c(N)ncnc54)c3)cc2n1 [Compound I-138]', 'METTL3/METTL14 (Homo sapiens)', '< 0.01 µM'),
  ('Cn1ccc(-c2cn(-c3cncc(COc4ccc5ccc(N6CC7(COC7)C6)nc5c4)c3)c3ncnc(N)c23)n1 [Compound I-201]', 'METTL3/METTL14 (Homo sapiens)', '0.1 to 1 µM'),
  ('CNc1ccc2ccc(OCc3cccc(-n4cc(Br)c5c(N)ncnc54)c3)cc2n1 [Compound I-43]', 'METTL3/METTL14 (Homo sapiens)', '0.01 to 0.1 µM'),
  ('CNc1ccc2ccc(OCc3cccc(-n4cc(C5CCCC5)c5c(N)ncnc54)c3)cc2n1 [Compound I-86]', 'METTL3/METTL14 (Homo sapiens)', '0.01 to 0.1 µM'),
  ('Cn1ccc(-c2cn(-c3cncc(COc4ccc5ccc(N6CC7(CC7)C6)nc5c4)c3)c3ncnc(N)c23)n1 [Compound I-203]', 'METTL3/METTL14 (Homo sapiens)', '0.01 to 0.1 µM'),
  ('CNc1ccc2ccc(OCc3cncc(-n4cc(-c5ccnn5C)c5c(N)ncnc54)c3)cc2n1 [Compound I-35]', 'METTL3/METTL14 (Homo sapiens)', '< 0.01 µM'),
  ('CCNc1ccc2ccc(CCc3cncc(-n4cc([C@H]5CCCO5)c5c(N)ncnc54)n3)cc2n1 [Compound I-139]', 'METTL3/METTL14 (Homo sapiens)', '0.01 to 0.1 µM'),
  ('CCc1cc(N(C)CCN(C)C)c2ccc(CCc3cncc(-n4cc(-c5ccn(C)n5)c5c(N)ncnc54)c3)cc2n1 [Compound I-155]', 'METTL3/METTL14 (Homo sapiens)', '< 0.01 µM'),
  ('CNc1ccc2ccc(OCc3cncc(-n4ccc5c(C)ncnc54)c3)cc2n1 [Compound I-44]', 'METTL3/METTL14 (Homo sapiens)', '0.01 to 0.1 µM'),
  ('CNc1ccc2ccc(OCc3cc(OC)cc(-n4cc(Cl)c5c(N)ncnc54)c3)cc2n1 [Compound I-82]', 'METTL3/METTL14 (Homo sapiens)', '0.1 to 1 µM'),
  ('CNc1ccc2ccc(OCc3cncc(-n4cc(CCN(C)C)c5c(N)ncnc54)c3)cc2n1 [Compound I-27]', 'METTL3/METTL14 (Homo sapiens)', '0.01 to 0.1 µM'),
  ('CNc1ccc2ccc(OCc3cccc(-n4cc(Cl)c5c(N)ncnc54)c3)cc2n1 [Compound I-87]', 'METTL3/METTL14 (Homo sapiens)', '0.01 to 0.1 µM'),
  ('CCc1cc(N2CCOCC2)c2ccc(OCc3cncc(-n4cc([C@H]5CCCO5)c5c(N)ncnc54)c3)cc2n1 [Compound I-142]', 'METTL3/METTL14 (Homo sapiens)', '0.01 to 0.1 µM'),
  ('CNc1ccc2ccc(OCc3cncc(-n4cc(-c5ccc(C)o5)c5c(N)ncnc54)c3)cc2n1 [Compound I-234]', 'METTL3/METTL14 (Homo sapiens)', '< 0.01 µM');
